The molecules listed here are annotated with their TGI.
test system: HCT-116 colon; test: NCI tumour cell line growth inhibition, 48 h

COC(=O)c1ccc(NC(=O)c2ccc(NC3=C(Cl)C(=O)N(Cc4ccccc4)C3=O)cc2)cc1; 11.8 µM
c1ccc2c(c1)SP1Sc3ccccc3P21 (stereo unspecified); > 100 µM
COc1ccc2nc3n(c2c1)C(c1c(F)cccc1F)SC3 (stereo unspecified); 75.2 µM
CCOC(=O)[C@@H]1ON2O[C@@H](OC3CCCCC3c3ccccc3)C[C@H]3OC(=O)[C@@H]1C32 (stereo partly specified); > 100 µM
C=C(C)C1CCC2=CC(CC3(C)OC3C3=CC(C(=O)OC)=C(C1)O3)OC2=O (stereo unspecified); > 100 µM

// query Please indicate TGI recorded for `COc1ccc(/C=C2\Sc3nnc(-c4ccccc4)n3N=C2c2cc(F)c(Cl)cc2Cl)cc1OC`
// result > 100 µM

// query Please indicate TGI recorded for `COc1c(B(O)O)cccc1-c1nc2ccc3[nH]ncc3c2c2c1CCCC2`
// result > 96.7 µM

// query Please indicate TGI recorded for `COC(=O)[C@@H](NC(=O)[C@H](N)Cc1ccc(N(CCCl)CCCl)cc1)C(C)C`
// result 44.1 µM

// query Please indicate TGI recorded for OC(CN1CCCC2CCCCC21)c1cc2ccccc2c2ccccc12 (stereo unspecified)
// result 2.56 µM

// query Please indicate TGI recorded for `O=C(OCc1ccccc1)c1ccc(NCc2cc(O)ccc2O)cc1`
// result 3.02 µM

// query Please indicate TGI recorded for N#CC(C(=N/O)/C(=N\O)C(C#N)c1ccccc1)c1ccccc1 (stereo unspecified)
// result > 100 µM

// query Please indicate TGI recorded for `COc1ccc2c(C)cc(N/N=C/c3ccc(C)s3)nc2c1`
// result > 46.4 µM

// query Please indicate TGI recorded for CC(C)(C)[Si](C)(C)OCCc1ccccc1C1CC2(S(=O)(=O)c3ccccc3)ON1CC2S(=O)(=O)c1ccccc1 (stereo unspecified)
// result > 100 µM

// query Please indicate TGI recorded for NC(Cc1cccnn1)C(=O)O (stereo unspecified)
// result > 100 µM

// query Please indicate TGI recorded for `O=NN1CCN=C1c1ccc([N+](=O)[O-])cc1`
// result > 100 µM

// query Please indicate TGI recorded for `COc1ccc(/C=N/N=C(\N)NO)cc1F`
// result > 100 µM

// query Please indicate TGI recorded for CCO[C@@]12CCC3CC4CC[C@@](OCC)(O1)C4C32 (stereo partly specified)
// result > 100 µM

---

The compounds listed here are annotated with their GI50.
tested on: SK-MEL-28 melanoma; experiment: NCI tumour cell line growth inhibition, 48 h

O=C1C(Cl)=C(Nc2cc(Cl)ccc2O)C(=O)N1Cc1ccccc1; 16.1 µM

With those in mind, consider the next compound.
// query Please indicate GI50 recorded for `C#CCOc1cccc(Nc2ncnc3cc(NC(=O)C=C)ccc23)c1`
// result 23 µM

---

system: OVCAR-8 ovarian; test: NCI tumour cell line growth inhibition, 48 h; in the data active means GI50 below about 0.43 µM; inactive means the rest
Select the correct class. Options are true (active), false (inactive) and nothing else.

O=C1c2ccn(CCCNC(CO)(CO)CO)c2C(=O)c2c1c(O)c1ccccc1c2O; false
COc1cc2c(NC3CCN(C(C)C)CC3)nc(C3CCCCC3)nc2cc1OCCCN1CCCC1; false

// query What classification did `O=C1C(Cl)=C(Nc2cc(Cl)ccc2O)C(=O)N1Cc1ccccc1` end up with in this test?
// result false

// query What classification did C[C@@]1(C(=O)O)CCC[C@]2(C)C1CC[C@]13C[C@@](O)(CO)[C@](O)(CC[C@]12O)C3 (some centres undefined) end up with in this test?
// result false

// query What classification did `Cn1cc(C2=C(c3cc[nH]c3)C(=O)NC2=O)c2ccccc21` end up with in this test?
// result false

// query What classification did `CC1=CC(C)(C)Nc2ccc(Cc3ccc4c(c3)C(C)=CC(C)(C)N4)cc21` end up with in this test?
// result false

// query What classification did `Cc1cc(Cl)nc(N(CCCNc2ccnc3cc(Cl)ccc23)Cc2cccs2)n1` end up with in this test?
// result false

// query What classification did `Cc1c(Cl)cccc1NC(=O)c1sc2nc3c(cc2c1N)C(=O)CCC3` end up with in this test?
// result true

// query What classification did `O=c1cc(-c2ccccc2)oc2cc(OCCCCCN3CCOCC3)cc(O)c12` end up with in this test?
// result false
